test: Plasma pharmacokinetics of oral gilteritinib in mice, with or without itraconazole pretreatment; assay type: in vivo; conditions: male, DBA/1J (wild-type), mouse, plasma, po, 10 mg/kg, Wild-type DBA/1J male mice, gilteritinib 10 mg/kg p.o., no co-treatment; mean (SD)
Observed Property: Cmax

Prompt: So what's the measured Cmax for this one? CCc1nc(C(N)=O)c(Nc2ccc(N3CCC(N4CCN(C)CC4)CC3)c(OC)c2)nc1NC1CCOCC1
Completion: 260 ng/mL

###

molecular target: OATP1B2 (Mus musculus, UniProt Q9JJL3); assay: Transport inhibition assay: 8-FcA uptake in OATP1B2 overexpressing HEK293 cells; settings: OATP1B2 overexpressing HEK293 cells vs vector control; fluorescent probe 8-FcA; read-out: IC50, inhibition of OATP1B2 function
Sequence (Q9JJL3 whole entry): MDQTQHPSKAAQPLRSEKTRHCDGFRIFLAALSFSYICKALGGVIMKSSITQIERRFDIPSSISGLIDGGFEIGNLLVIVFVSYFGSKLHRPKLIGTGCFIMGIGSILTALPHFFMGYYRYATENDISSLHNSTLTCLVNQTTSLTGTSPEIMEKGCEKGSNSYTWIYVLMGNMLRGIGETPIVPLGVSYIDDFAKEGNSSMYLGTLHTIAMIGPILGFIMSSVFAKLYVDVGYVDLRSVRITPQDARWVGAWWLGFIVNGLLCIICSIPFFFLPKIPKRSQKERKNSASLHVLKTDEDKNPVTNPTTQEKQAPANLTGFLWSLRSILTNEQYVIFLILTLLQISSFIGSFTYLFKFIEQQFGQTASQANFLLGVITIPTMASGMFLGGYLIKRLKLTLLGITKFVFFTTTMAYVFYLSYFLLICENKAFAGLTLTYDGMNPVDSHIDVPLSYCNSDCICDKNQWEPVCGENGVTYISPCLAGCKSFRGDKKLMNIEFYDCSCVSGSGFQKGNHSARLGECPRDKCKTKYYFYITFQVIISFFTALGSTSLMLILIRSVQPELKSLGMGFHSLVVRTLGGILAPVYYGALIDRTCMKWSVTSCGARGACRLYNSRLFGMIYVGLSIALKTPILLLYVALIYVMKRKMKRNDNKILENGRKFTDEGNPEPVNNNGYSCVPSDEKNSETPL
Observed Property: pIC50
Value format note: pIC50 is -log10 of concentration (mol/L); just state the number.

Prompt: What value of pIC50 has been reported for the following compound? CCc1nc(C(N)=O)c(Nc2ccc(N3CCC(N4CCN(C)CC4)CC3)c(OC)c2)nc1NC1CCOCC1
Completion: 5.74

###

assay: Plasma pharmacokinetics of oral gilteritinib in mice, with or without itraconazole pretreatment; type: in vivo; settings: male, DBA/1J (wild-type), mouse, plasma, po, 10 mg/kg, Wild-type DBA/1J male mice, gilteritinib 10 mg/kg p.o., no co-treatment; mean (SD); read-out: Gilteritinib AUC0–24h
Observed Property: AUC(0-t) (ng·h/mL)
Give the value in ng·h/mL but do not write ng·h/mL after it.

Prompt: State the recorded AUC(0-t) for this entry: CCc1nc(C(N)=O)c(Nc2ccc(N3CCC(N4CCN(C)CC4)CC3)c(OC)c2)nc1NC1CCOCC1
Completion: 4550

###

assay: Plasma pharmacokinetics of oral gilteritinib in mice, with or without itraconazole pretreatment; type: in vivo; conditions: male, FVB (wild-type), mouse, plasma, po, 10 mg/kg, Wild-type FVB male mice, gilteritinib 10 mg/kg p.o., no co-treatment; mean (SD)
Observed Property: Cmax (ng/mL)
Give the number; ng/mL is assumed, so skip it.

Prompt: Which measured Cmax value corresponds to CCc1nc(C(N)=O)c(Nc2ccc(N3CCC(N4CCN(C)CC4)CC3)c(OC)c2)nc1NC1CCOCC1 ?
Completion: 310

###

experiment: Plasma pharmacokinetics of oral gilteritinib in mice, with or without itraconazole pretreatment; assay type: in vivo; details: male, OATP1B2(−/−) on DBA1/lacJ background, mouse, plasma, po, 10 mg/kg, OATP1B2(−/−) male mice, gilteritinib 10 mg/kg p.o., no co-treatment; experiment compared with itraconazole co-treatment; mean (SD)
Observed Property: Cmax (ng/mL)
# value in ng/mL; strip the unit string

Prompt: What measured Cmax goes with CCc1nc(C(N)=O)c(Nc2ccc(N3CCC(N4CCN(C)CC4)CC3)c(OC)c2)nc1NC1CCOCC1 ?
Completion: 1430

###

assay: Plasma pharmacokinetics of oral gilteritinib in mice, with or without itraconazole pretreatment; format: in vivo; details: male, OATP1B2(−/−) on DBA1/lacJ background, mouse, plasma, po, 10 mg/kg, OATP1B2(−/−) male mice, gilteritinib 10 mg/kg p.o., no co-treatment; experiment compared with itraconazole co-treatment; mean (SD); read-out: Gilteritinib AUC0–24h
Observed Property: AUC(0-t)

Prompt: Recorded AUC(0-t) for CCc1nc(C(N)=O)c(Nc2ccc(N3CCC(N4CCN(C)CC4)CC3)c(OC)c2)nc1NC1CCOCC1 , please?
Completion: 17.8 µg·h/mL

###

target: human OATP1B1 (SLCO1B1) (Homo sapiens, UniProt Q9Y6L6); construct: expressed in transfected cells; host or cells: HEK293; experiment: Transport inhibition assay: EβG uptake in OATP1B1 overexpressing HEK293 cells; type: cell-based; details: OATP1B1 overexpressing HEK293 cells vs vector control; radiolabeled EβG; 15 min pre-incubation; read-out: IC50, inhibition of OATP1B1-mediated cellular accumulation of EβG
Sequence (Q9Y6L6 whole entry): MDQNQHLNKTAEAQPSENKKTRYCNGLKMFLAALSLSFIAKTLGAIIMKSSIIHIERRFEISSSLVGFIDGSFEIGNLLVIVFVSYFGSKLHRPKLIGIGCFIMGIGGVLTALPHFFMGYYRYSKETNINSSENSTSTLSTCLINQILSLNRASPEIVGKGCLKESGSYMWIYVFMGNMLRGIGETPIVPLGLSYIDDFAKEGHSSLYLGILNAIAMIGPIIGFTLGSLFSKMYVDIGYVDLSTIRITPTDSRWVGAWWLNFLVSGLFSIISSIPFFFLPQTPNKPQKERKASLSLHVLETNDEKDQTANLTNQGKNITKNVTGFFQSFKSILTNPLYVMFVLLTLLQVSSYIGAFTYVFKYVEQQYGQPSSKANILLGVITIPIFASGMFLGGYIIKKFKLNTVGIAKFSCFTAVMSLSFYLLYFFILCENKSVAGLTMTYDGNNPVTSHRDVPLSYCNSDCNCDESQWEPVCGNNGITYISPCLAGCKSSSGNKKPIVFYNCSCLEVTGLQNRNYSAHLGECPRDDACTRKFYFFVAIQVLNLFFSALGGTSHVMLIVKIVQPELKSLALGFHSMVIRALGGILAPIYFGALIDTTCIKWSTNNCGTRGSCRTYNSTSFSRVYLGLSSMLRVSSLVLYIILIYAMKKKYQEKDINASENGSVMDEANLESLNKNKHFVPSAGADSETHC
Measured pIC50, listed per entry for reference.
Lab note — pIC50 values are minus log10 of concentrations in M.

Some molecules with known pIC50 results, for comparison:
Molecule	pIC50
CC(=O)C(C)n1ncn(-c2ccc(N3CCN(c4ccc(OC[C@H]5CO[C@](Cn6cncn6)(c6ccc(Cl)cc6Cl)O5)cc4)CC3)cc2)c1=O (stereo partly shown)	5.12
CCC(C)n1ncn(-c2ccc(N3CCN(c4ccc(OCC5COC(Cn6cncn6)(c6ccc(Cl)cc6Cl)O5)cc4)CC3)cc2)c1=O (stereo not shown)	4.56
CC(O)C(C)n1ncn(-c2ccc(N3CCN(c4ccc(OCC5COC(Cn6cncn6)(c6ccc(Cl)cc6Cl)O5)cc4)CC3)cc2)c1=O (stereo not shown) [hydroxy-itraconazole]	5.53

Shift focus to the following entry.
Prompt: Consider the molecule shown here: CCc1nc(C(N)=O)c(Nc2ccc(N3CCC(N4CCN(C)CC4)CC3)c(OC)c2)nc1NC1CCOCC1 What is its recorded pIC50?
Completion: 5.65

###

assay: Plasma pharmacokinetics of oral gilteritinib in mice, with or without itraconazole pretreatment; type: in vivo; conditions: male, CYP3A(−/−) on FVB/NTac background, mouse, plasma, po, 10 mg/kg, CYP3A(−/−) male mice, gilteritinib 10 mg/kg p.o., no co-treatment; mean (SD)
Observed Property: Cmax (ng/mL)
Write the value in ng/mL as a bare number.

Prompt: What value of measured Cmax is listed for CCc1nc(C(N)=O)c(Nc2ccc(N3CCC(N4CCN(C)CC4)CC3)c(OC)c2)nc1NC1CCOCC1 ?
Completion: 380

###

test: Plasma pharmacokinetics of oral gilteritinib in mice, with or without itraconazole pretreatment; format: in vivo; conditions: male, OATP1B2(−/−) on DBA1/lacJ background, mouse, plasma, po, 10 mg/kg, OATP1B2(−/−) male mice, gilteritinib 10 mg/kg p.o., no co-treatment; experiment compared with wild-type DBA/1J; mean (SD); read-out: Gilteritinib AUC0–24h
Observed Property: AUC(0-t) (ng·h/mL)
Record the value in ng·h/mL, omitting the unit from your answer.

Prompt: Returns the measured AUC(0-t) for the input molecule. Input: CCc1nc(C(N)=O)c(Nc2ccc(N3CCC(N4CCN(C)CC4)CC3)c(OC)c2)nc1NC1CCOCC1
Completion: 6160

###

assay: Plasma pharmacokinetics of oral gilteritinib in mice, with or without itraconazole pretreatment; format: in vivo; conditions: male, FVB (wild-type), mouse, plasma, po, 10 mg/kg, Wild-type FVB male mice, gilteritinib 10 mg/kg p.o., no co-treatment; mean (SD); read-out: Gilteritinib AUC0–24h
Observed Property: AUC(0-t) (ng·h/mL)
The response must be a number in ng·h/mL with no trailing unit.

Prompt: Fill in: AUC(0-t) of CCc1nc(C(N)=O)c(Nc2ccc(N3CCC(N4CCN(C)CC4)CC3)c(OC)c2)nc1NC1CCOCC1 is ___
Completion: 4650

###

assay: Plasma pharmacokinetics of oral gilteritinib in mice, with or without itraconazole pretreatment; format: in vivo; settings: male, FVB (wild-type), mouse, plasma, po, 10 mg/kg, Wild-type FVB male mice, gilteritinib 10 mg/kg p.o., itraconazole 100 mg/kg 30 min before; mean (SD)
Observed Property: Cmax (ng/mL)
Value expressed in ng/mL; do not type the unit.

Prompt: Entry CCc1nc(C(N)=O)c(Nc2ccc(N3CCC(N4CCN(C)CC4)CC3)c(OC)c2)nc1NC1CCOCC1 [Gilteritinib] : reported Cmax = ?
Completion: 960

###

experiment: Plasma pharmacokinetics of oral gilteritinib in mice, with or without itraconazole pretreatment; format: in vivo; details: male, OATP1B2(−/−) on DBA1/lacJ background, mouse, plasma, po, 10 mg/kg, OATP1B2(−/−) male mice, gilteritinib 10 mg/kg p.o., itraconazole 100 mg/kg 30 min before; mean (SD)
Observed Property: Cmax

Prompt: Would you kindly share the measured Cmax for CCc1nc(C(N)=O)c(Nc2ccc(N3CCC(N4CCN(C)CC4)CC3)c(OC)c2)nc1NC1CCOCC1 ?
Completion: 1350 ng/mL

###

target: human OATP1B1 (SLCO1B1) (Homo sapiens, UniProt Q9Y6L6); test: Transport inhibition assay: EβG uptake in OATP1B1 overexpressing HEK293 cells; conditions: gilteritinib 0.3–8.3 µM, EβG 0.2, 2, 20 µM; estimated; read-out: Ki (inhibition constant), EβG uptake by OATP1B1, Dixon plot
Observed Property: Ki (nM)
Numeric answer only, unit nM assumed.

Prompt: Given the compound CCc1nc(C(N)=O)c(Nc2ccc(N3CCC(N4CCN(C)CC4)CC3)c(OC)c2)nc1NC1CCOCC1 , what is its reported Ki?
Completion: 1600

###

experiment: Plasma pharmacokinetics of oral gilteritinib in mice, with or without itraconazole pretreatment; assay type: in vivo; conditions: male, FVB (wild-type), mouse, plasma, po, 10 mg/kg, Wild-type FVB male mice, gilteritinib 10 mg/kg p.o., itraconazole 100 mg/kg 30 min before; mean (SD); read-out: Gilteritinib AUC0–24h
Observed Property: AUC(0-t)
Hey, just the number and the unit after it is fine.

Prompt: For the compound CCc1nc(C(N)=O)c(Nc2ccc(N3CCC(N4CCN(C)CC4)CC3)c(OC)c2)nc1NC1CCOCC1 [Gilteritinib] , what AUC(0-t) is on record?
Completion: 11500 ng·h/mL
